tested target: T1, Human soluble IL-6R (human, UniProt P08887 20-358)
T1 construct: Soluble recombinant form; biotinylated in some assays; also called hIL-6R; human IL-6R
T1 sequence (looked up): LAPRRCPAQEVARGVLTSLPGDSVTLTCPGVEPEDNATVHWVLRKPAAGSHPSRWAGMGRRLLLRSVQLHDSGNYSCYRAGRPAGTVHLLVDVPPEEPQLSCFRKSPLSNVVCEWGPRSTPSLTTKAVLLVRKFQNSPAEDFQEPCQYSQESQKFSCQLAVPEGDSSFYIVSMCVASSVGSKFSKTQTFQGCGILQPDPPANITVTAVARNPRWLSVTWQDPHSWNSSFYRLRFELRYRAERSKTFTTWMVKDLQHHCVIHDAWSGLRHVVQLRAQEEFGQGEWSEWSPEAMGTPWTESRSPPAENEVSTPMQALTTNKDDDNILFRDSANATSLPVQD
method notes: Alphascreen IL-6/IL-6R competition with purified Nanobody; row EC50 of the table, axis [inhibitor], M; blocked ligand IL-6
pIC50: −log10 of the molar value.
Recorded pIC50 by entry

- binder: "IL6R13 (VHH, also called PMP35H4; not shown: C-terminal c-myc and (His)6 tags) VHH: EVQLVESGGGLVQPGGSLRLSCAASGFTFDDYGMSWVRQAPGRATEWVSAISWNGNNTYYTESMKGRFTISRDNAKNTVYLQMNSLKPEDTAVYYCVKGSTAIVGVPPTYPDEYDYWGQGTQVTVSS"
  pIC50: 10.30
- binder: "IL6R03 (VHH, also called PMP31A4; not shown: C-terminal c-myc and (His)6 tags) VHH: EVQLVESGGGLVQAGGSLRLSCAASGSIFKVNAMGWYRQAPGKQRELVAGIISGGSTNYADSVKGRLTISRDNAKNTVYLQMNSLKPEDTAVYYCSFVTTNSDYDLGRDYWGQGTQVTVSS"
  pIC50: 9.98
- binder: "IL6R88 (VHH, tested as periplasmic extract and purified) VHH: EVQLVESGGGLVQPGGSLRLSCAASGFTFDDYGMSWVRQAPGKGTEWVSAISWNGNNTYYTESMKGRFTISRDNAKNTLYLQMNSLRPEDTAVYYCVKGSTAIVGVPPTYPDEYDYWGQGTLVTVSS"
  pIC50: 10.14
- binder: "IL6R75 (VHH, also called ILR7.5; not shown: tag (IL6R201 is called the tagless version of IL6R75)) VHH: EVQLVESGGGLVQPGGSLRLSCAASGFTFSDYDIGWFRQAPGKGREGVSGISSSDGNTYYADSVKGRFTISRDNAKNTLYLQMNSLRPEDTAVYYCAAEPPDSSWYLDGSPEFFKYWGQGTLVTVSS"
  pIC50: 10.36
- binder: "IL6R65 (VHH, also called ILR65; parent Nanobody) VHH: EVQLVESGGGLVQPGGSLRLSCAASGSIFKVNAMGWYRQAPGKGRELVAGIISGGSTNYADSVKGRFTISRDNAKNTLYLQMNSLRPEDTAVYYCAFVTTNSDYDLGRDYWGQGTLVTVSS"
  pIC50: 9.83
- binder: "IL6R04 (VHH, also called PMP32C9; not shown: C-terminal c-myc and (His)6 tags) VHH: EVQLVESGGGLVQAGGSLRLSCAASGFTFDDYDIGWFRQAPGKEREGVSGISSSDGNTYYADSVKGRFTISSDNAKNTVYLQMNSLKPEDTAVYYCAAEPPDSSWYLDGSPEFFKYWGQGTQVTVSS"
  pIC50: 10.25
